Values compiled from patent US20120220537A1.

# Test system: MCF-7mito (mitoxantrone selected and associated with MDR phenomena breast cancer)
# Test Protocol: In vitro cytotoxicity, neutral red uptake
# Format: cell-based
# Condition Info: Homo sapiens; MCF7 mito cells, 24 h treatment, neutral red; read-out: anticancer activity (IC50) MCF7 mito
Form field: IC50 (one value per entry).
Readout Type: IC50 (µM)

compound="O=C(NC(CO)C(=O)O)c1ccc(Nc2c3ccccc3nc3ccccc23)c([N+](=O)[O-])c1 (stereo not drawn)" target_entity="MCF-7mito (mitoxantrone selected and associated with MDR phenomena breast cancer)" value=4.5
compound=O=[N+]([O-])c1ccc(O)cc1CNc1c2ccccc2nc2ccccc12 target_entity="MCF-7mito (mitoxantrone selected and associated with MDR phenomena breast cancer)" value=18.4
compound=O=C1C(Cl)=C(Nc2c3ccccc3nc3ccccc23)C(=O)c2ccccc21 target_entity="MCF-7mito (mitoxantrone selected and associated with MDR phenomena breast cancer)" value=0.8
compound="NCCCCC(NC(=O)c1ccc(Nc2c3ccccc3nc3ccccc23)c([N+](=O)[O-])c1)C(N)=O (stereo not drawn)" target_entity="MCF-7mito (mitoxantrone selected and associated with MDR phenomena breast cancer)" value=18.4
compound=O=[N+]([O-])c1cccnc1Nc1c2ccccc2nc2ccccc12 target_entity="MCF-7mito (mitoxantrone selected and associated with MDR phenomena breast cancer)" value=1.6
compound="NC(=O)c1ccc(Nc2c3ccccc3nc3ccccc23)c([N+](=O)[O-])c1 [Compound 14, 4-(acridin-9-ylamino)-3-nitrobenzamide]" target_entity="MCF-7mito (mitoxantrone selected and associated with MDR phenomena breast cancer)" value=7.2
compound=O=C(O)c1ccccc1CNc1c2ccccc2nc2ccccc12 target_entity="MCF-7mito (mitoxantrone selected and associated with MDR phenomena breast cancer)" value=0.76
compound=O=C(O)c1ccc(Nc2c3ccccc3nc3ccccc23)c([N+](=O)[O-])c1 target_entity="MCF-7mito (mitoxantrone selected and associated with MDR phenomena breast cancer)" value=7.2
compound=Nc1c2ccccc2nc2ccccc12 target_entity="MCF-7mito (mitoxantrone selected and associated with MDR phenomena breast cancer)" value=163
compound=Oc1ccc2ccccc2c1CNc1c2ccccc2nc2ccccc12 target_entity="MCF-7mito (mitoxantrone selected and associated with MDR phenomena breast cancer)" value=1.8
compound=CCOC1=C(Nc2c3ccccc3nc3ccccc23)C(=O)c2c(O)ccc(O)c2C1=O target_entity="MCF-7mito (mitoxantrone selected and associated with MDR phenomena breast cancer)" value=0.5
compound=O=[N+]([O-])c1ccccc1Nc1c2ccccc2nc2ccccc12 target_entity="MCF-7mito (mitoxantrone selected and associated with MDR phenomena breast cancer)" value=46.7
